Reference source for all entries: paper PMC12040169

# testProtocol: in vitro
# settings: human, hela cells, % viability
Items are presented alongside their recorded viability at 28.5 h, 10 µM.
metricName: viability at 28.5 h, 10 µM (%)

Cc1ccc(S(=O)(=O)NC(Cc2ccccc2)C(=O)O)cc1 (stereo not shown) [CBK217645] | 102
O=C(Nc1nccs1)c1ncn[nH]1 [CBK028821] | 102
CC(C)c1nccn1CCC(=O)N1CCC(c2ccncc2)CC1 [CBK283512] | 105
CC1=C(C(=O)OCc2ccccc2)C2(C(=O)Nc3ccccc32)C(C(=O)OCc2ccccc2)=C(N)O1 (stereo not shown) [CBK262576] | 89.6
CS(=O)(=O)Nc1ccc2[nH]c(=O)c(C(=O)NCc3ccc(Cl)cc3)cc2c1 [CBK017560] | 97.9
Cc1ccc2nc(-c3ccccc3)c(CN3CCCC3)c(O)c2c1 [CBK264736] | 106
CCCc1ccc(-c2nccn2CCn2cc(C)nn2)o1 [CBK307688] | 101
O=S(=O)(NCc1ccc2c(c1)OCO2)c1ccc2c(c1)oc1ccccc12 [CBK268308] | 104
O=C(CCN1CCN(C(c2ccccc2)c2ccccc2)CC1)c1ccccc1 [CBK074788] | 111
CSc1ncc(Cl)c(C(=O)Nc2nc(-c3ccc(S(=O)(=O)N4CCOCC4)cc3)cs2)n1 [CBK269064] | 102
Cc1cc(C)c(S(=O)(=O)Nc2nnc(C(C)C)s2)c(C)c1 [CBK045516] | 102
CCOC(=O)c1cnn(C2CCCN(Cc3cccn3C)C2)c1 (stereo not shown) [CBK305114] | 84.3
CC(=O)Nc1cccc(-c2cc(N3CCN(C(=O)c4ccco4)CC3)ncn2)c1 [CBK036959] | 93.7
Cc1ccc(/C=N/NC(=O)C(C)Oc2ccccc2Br)o1 (stereo not shown) [CBK262226] | 103
Cc1nc(-c2cccnc2)[nH]c(=O)c1CCC(=O)N1CCNC(C)C1 (stereo not shown) [CBK304163] | 102
N=C(N)NCC(=O)N(CCCc1cc(C(F)(F)F)cc(C(F)(F)F)c1)c1ccc2c(c1)OCO2 [CBK000702T] | 80.1
CC(=O)NC1(c2ccccc2)CCN(Cc2ccnn2C)CC1 [CBK281805] | 87.8
c1ccc(CNc2c(-c3ccco3)nc3cnccn23)cc1 [CBK283933] | 90.6
O=C1COc2ccccc2CCCCC2(CCCN(CC(=O)N3CCCC3)C2)CN1 (stereo not shown) [CBK292009] | 105
